Numbers sourced from paper PMC12864922.

target: TDP-43 (Homo sapiens, UniProt Q13148 1-414); experiment: RNA Bind-n-Seq with designed 260-mer pool; 25 mM Tris-HCl, 150 mM KCl, 3 mM MgCl2, BSA (printed 500 mg/mL), 20 units/mL SUPERase IN; pH not stated; 500 nM RNA pool, 1 h, 4 C; TDP-43 5, 50, 500 nM; high values mean tight binding; settings: protein: recombinant; tags: SBP (GST cleaved off with PreScission; pGEX-GST-SBP)
Sequence (Q13148 whole entry): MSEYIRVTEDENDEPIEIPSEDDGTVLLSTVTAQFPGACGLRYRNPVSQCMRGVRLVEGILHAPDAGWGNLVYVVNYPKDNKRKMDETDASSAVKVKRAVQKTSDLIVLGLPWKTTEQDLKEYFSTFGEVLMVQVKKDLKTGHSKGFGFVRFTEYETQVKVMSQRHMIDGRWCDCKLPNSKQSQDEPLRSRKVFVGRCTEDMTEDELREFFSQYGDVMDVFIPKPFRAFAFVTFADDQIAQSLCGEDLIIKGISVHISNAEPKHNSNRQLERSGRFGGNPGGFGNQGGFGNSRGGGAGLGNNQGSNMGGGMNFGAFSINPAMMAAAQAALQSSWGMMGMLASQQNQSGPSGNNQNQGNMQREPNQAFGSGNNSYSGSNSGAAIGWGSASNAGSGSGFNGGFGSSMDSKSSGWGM
The full ranking holds about 9,900 sequences; the median of “r (bound/input frequency ratio)” is about 0.7, and the highest 2% start at about 6.5. Only a selection was taken, and the highest values are over-represented in it overall.

Binder: ENSMUSG00000032194.283|Kank2 (ssRNA) RNA: GGGAGUUCUACAGUCCGACGAUCGCUUCGAUAUCCGCAUGCUAAUGGACAGGUGGGUGGAUGGAUGGGUGGACGGAUGAGUGUGGGGUGGGUGGAUGGAUAAAUGAGCAAUGGAUGAGAAACUGGGUUGGCUGGUGGGUAGAUGUCAUGAUGGAGUCUUUGCACGUGUAUGAAACAGAAAACCAAACUUCAGGACAGACAGCUGCUGGUGUCUCUGGAUGCUCACAGCCUAGGGCACAUUUGAAAGGUCGUGCUCUGAGCUGAGCCCUGAGUUCCAGCCUUGUAGCCAGCAAGGGAGUUUAUUCUCUUGCGGUCGCACUAGUGUGGAAUUCUCGGGUGUCAAGG
binding signal: 3.66 R (bound/input frequency ratio)
//
Binder: ENSMUSG00000028439.221|Fam219a (ssRNA) RNA: GGGAGUUCUACAGUCCGACGAUCGCUUCGAUAUCCGCAUGCUAAGCUCCUAAGCAAUUCCCAGGCUUCUCUAGGGCUUCAGUUCUCACAACUGGAAAAUAAAGAGUAGCUGACAUCACCGACAGAGUCUUUUCAUACCAGAAGGAAUUUCUUCACAGGAGUUUCUGCAAAAGACUAUGACAUCUGUGUGUCUGUGGUCUCACGAGGUACCUGGAGGUGUAUGUGCACGGACAUGGGAAGUACGUGAAGAUUUAUUUCGGGAAAAGUGGUGUGUGUGUAGCUGUACUGGGUGUCAUGUAUGCUGCUCUUGCGGUCGCACUAGUGUGGAAUUCUCGGGUGUCAAGG
binding signal: 2.59 R (bound/input frequency ratio)
